- EXPERIMENT DESCRIPTION: Acute toxicity test, oral, ICR mice
- CONDITION LABEL: mouse, in vivo, 6-week-old ICR mice, orally, suspended in 0.5% methylcellulose
READOUT TYPE: LD50

May I ask what LD50 has been recorded for COc1c(N2C[C@@H](CN)[C@H](C(F)(F)F)C2)c(F)cc2c(=O)c(C(=O)O)cn(C3CC3)c12 (relative stereo) [Example 21a] ?
≥ 4000 mg/kg

====

- System: S. pyogenes Cook
- EXPERIMENT DESCRIPTION: Antibacterial activity, MIC by agar plate dilution assay
- Format: cell-based
- Set-up: unit not given here
READOUT TYPE: Minimum Inhibitory Concentration (MIC)
Note: the reply should be a number with no unit written.

May I ask what Minimum Inhibitory Concentration (MIC) has been recorded for COc1c(N2C[C@@H](CO)[C@H](C(F)(F)F)C2)c(F)cc2c(=O)c(C(=O)O)cn(C3CC3)c12 (relative stereo) ?
0.2

May I ask what Minimum Inhibitory Concentration (MIC) has been recorded for NC[C@@H]1CN(c2c(F)cc3c(=O)c(C(=O)O)cn(C4CC4)c3c2Cl)C[C@H]1C(F)(F)F (relative stereo) [Example 15a] ?
0.013

May I ask what Minimum Inhibitory Concentration (MIC) has been recorded for CC1COc2c(N3CCN(C)CC3)c(F)cc3c(=O)c(C(=O)O)cn1c23 (centres unmarked) [OFLX, Ofloxacin, reference compound] ?
0.78

May I ask what Minimum Inhibitory Concentration (MIC) has been recorded for Nc1c(F)c(N2C[C@@H](N)[C@H](C(F)(F)F)C2)c(F)c2c1c(=O)c(C(=O)O)cn2C1CC1 (relative stereo) [Example 29a] ?
0.2

May I ask what Minimum Inhibitory Concentration (MIC) has been recorded for NC[C@@H]1CN(c2c(F)c(N)c3c(=O)c(C(=O)O)cn(C4CC4)c3c2F)C[C@H]1C(F)(F)F (relative stereo) [Example 18a] ?
0.013

May I ask what Minimum Inhibitory Concentration (MIC) has been recorded for O=C(O)c1cn(C2CC2)c2c(F)c(N3C[C@@H](CO)[C@H](C(F)(F)F)C3)c(F)cc2c1=O (relative stereo) ?
0.39

May I ask what Minimum Inhibitory Concentration (MIC) has been recorded for N[C@@H]1CN(c2c(F)cc3c(=O)c(C(=O)O)cn(C4CC4)c3c2Cl)C[C@H]1C(F)(F)F (relative stereo) [Example 26a] ?
0.39

May I ask what Minimum Inhibitory Concentration (MIC) has been recorded for N[C@@H]1CN(c2c(F)cc3c(=O)c(C(=O)O)cn(C4CC4)c3c2F)C[C@H]1C(F)(F)F (relative stereo) [Example 23a] ?
0.78
